For each of the compounds below, state its GI50.
System: HL-60
Assay: NCI tumour cell line growth inhibition, 48 h
The source made the active and inactive calls. Cut-off read from the data, not from the text of the source: active = GI50 up to about 1.1 µM and inactive = higher.

Problem: // Input: `Cc1nn(-c2ccccc2)c(C)c1/C=N/NC(=O)c1sc(=S)n(-c2ccc(Cl)cc2)c1N` . Output its GI50 only.
Solution: 8.17 µM (inactive)

Problem: // Input: `C[C@H]1CC(=O)[C@@]2(O)C#C/C=C\C#C[C@@H]3Nc4c(cc(O)c5c4C(=O)c4ccccc4C5=O)[C@]24O[C@]314` . Output its GI50 only.
Solution: < 0.001 µM (active)

Problem: // Input: `S=C(Nc1ccccc1)Nc1[nH]c(=S)sc1-c1nc2ccccc2[nH]1` . Output its GI50 only.
Solution: > 100 µM (inactive)

Problem: // Input: `COc1ccc(Nc2n[nH]c(NS(=O)(=O)c3cc(C)c(Cl)cc3S)n2)cc1` . Output its GI50 only.
Solution: > 100 µM (inactive)

Problem: // Input: `Nc1nc2c(c(-c3ccccc3Cl)n1)COC/C2=C\c1ccccc1Cl` . Output its GI50 only.
Solution: 3.08 µM (inactive)

Problem: // Input: `NC(=S)N/N=C(/C(=O)Nc1nc2ccc([N+](=O)[O-])cc2s1)C1C(=O)NC(=S)NC1=O` . Output its GI50 only.
Solution: > 100 µM (inactive)

Problem: // Input: `O=C(O)c1cc(C(=O)O)cc(N2C(=O)c3ccccc3C2=O)c1` . Output its GI50 only.
Solution: > 100 µM (inactive)

Problem: // Input: `C[N+](C)(C)CC(=O)N/N=C(/Cc1nc2ccc([N+](=O)[O-])cc2nc1O)C(=O)Nc1cc(C(F)(F)F)ccc1Cl` . Output its GI50 only.
Solution: > 100 µM (inactive)

Problem: // Input: `CCCCCCCCNC(=O)C1=C(C)NC(C)=C(C(=O)NCCCCCCCC)C1` . Output its GI50 only.
Solution: > 100 µM (inactive)

====

System: DU-145
Assay: NCI tumour cell line growth inhibition, 48 h
Active and inactive are the calls of the source. Cut-off read from the data, not from the text of the source: active = GI50 up to about 1.1 µM and inactive = higher.
I would appreciate it if you answered using one of these outcomes: label 1 = active, label 0 = inactive

Problem: # fetch the recorded call for `CCc1ccc(CCN2CCCCC2)nc1` here
Solution: label 0

Problem: # fetch the recorded call for `O=Cc1ccccc1B(O)O` here
Solution: label 1

Problem: # fetch the recorded call for Nc1ncnc2c1cnn2COCC(O)CO (stereo not drawn) here
Solution: label 0

====

For each of the compounds below, state its GI50.
System: HCT-116
Assay: NCI tumour cell line growth inhibition, 48 h
Active and inactive are the calls of the source. Cut-off read from the data, not from the text of the source: active = GI50 up to about 1.1 µM and inactive = higher.

Problem: // Input: `CCSC1=N/C(=C\c2ccco2)C(NN)=N1` . Output its GI50 only.
Solution: > 50 µM (inactive)

Problem: // Input: `N#Cc1c(N)oc(-c2cccc([N+](=O)[O-])c2)c1C#N` . Output its GI50 only.
Solution: 33.7 µM (inactive)

Problem: // Input: `CCOP(=O)(O)C(C)(C)NC` . Output its GI50 only.
Solution: > 100 µM (inactive)

Problem: // Input: `CN(/N=C/c1ccccn1)C1=NCCCCN1` . Output its GI50 only.
Solution: > 100 µM (inactive)

Problem: // Input: `COc1cc(CNc2nc3ccccc3nc2-c2cccs2)cc(OC)c1OC` . Output its GI50 only.
Solution: 22.9 µM (inactive)

Problem: // Input: `COc1cc(OC)cc(-n2c(N)c(C#N)c3ccc([N+](=O)[O-])cc3c2=O)c1` . Output its GI50 only.
Solution: 93.5 µM (inactive)

Problem: // Input: `COc1cc(C2=C(C)[C@@H]3CN(CC=C3c3ccc(Cl)cc3)C2)c(S(=O)(=O)O)cc1OC` . Output its GI50 only.
Solution: > 100 µM (inactive)

Problem: // Input: `O=C(O)c1cc(C(=O)O)cc(N2C(=O)c3ccccc3C2=O)c1` . Output its GI50 only.
Solution: > 100 µM (inactive)

Problem: // Input: `Cn1c(-c2ccccc2)c2cc3nc4ccccc4nc3cc2c1-c1ccccc1` . Output its GI50 only.
Solution: 23.2 µM (inactive)

Problem: // Input: `Cc1ccc2c(n1)C(=O)c1cc(C)c(C)cc1C2=O` . Output its GI50 only.
Solution: 47.6 µM (inactive)

Problem: // Input: COc1cc(/C=C2/SC(c3ccccc3)N(c3cccc(NC(C)=O)c3)C2=O)cc(OC)c1OC (configuration not stated) . Output its GI50 only.
Solution: 30.2 µM (inactive)

Problem: // Input: `CCOC(=O)c1cnc2cc3cccccc3n2c1=O` . Output its GI50 only.
Solution: 39.3 µM (inactive)

Problem: // Input: O=c1cccc2n1CC1CNC[C@H]2C1 [CYTISINICLINE] . Output its GI50 only.
Solution: > 100 µM (inactive)

Problem: // Input: `COc1ccc(/N=N/C(=N\c2ccc(F)cc2)c2ccc(N(CCC#N)CCC#N)cc2)cc1` . Output its GI50 only.
Solution: 32.6 µM (inactive)

Problem: // Input: SC1=NC2=C(CSC/C2=C\c2ccc(Cl)cc2)C(c2ccc(Cl)cc2)N1 (configuration not stated) . Output its GI50 only.
Solution: 27.5 µM (inactive)

Problem: // Input: `OCSc1nn(CO)c(=S)s1` . Output its GI50 only.
Solution: 24.2 µM (inactive)

Problem: // Input: CN(C)CCNC(=O)c1cccc2c(NC(CS)C(=O)O)c3ccccc3[n+](C)c12 (configuration not stated) . Output its GI50 only.
Solution: 41.1 µM (inactive)

Problem: // Input: CCCC(C)C[C@@H](C)CC(C)/C=C(\C)c1oc(=O)c(C)c(O)c1C.CC[C@@H](C)C[C@@H](C)C[C@@H](C)/C=C(\C)c1oc(=O)c(C)c(O)c1C (some centres not stated) . Output its GI50 only.
Solution: 17.6 µM (inactive)

Problem: // Input: `O=C/C(=C(/Br)I)c1ccccc1` . Output its GI50 only.
Solution: 1.51 µM (inactive)

Problem: // Input: COC(=O)CCC(NC(=S)N/N=C/c1cccs1)C(=O)OC (configuration not stated) . Output its GI50 only.
Solution: > 100 µM (inactive)

Problem: // Input: `O=c1c(-c2cccc3ccccc23)c(-c2cccc3ccccc23)c1=O` . Output its GI50 only.
Solution: 1.85 µM (inactive)

Problem: // Input: CC(C)C1CC=NN1C(=O)OC(C)(C)C (configuration not stated) . Output its GI50 only.
Solution: > 100 µM (inactive)
